- Tested on: SUDHL10 cells
- assay-summary: Induction of cytotoxicity (CellTiter-Glo, 5 h), SUDHL10
- run-conditions: read-out: Cytotox SUDHL10 [M] (median); IC50, median; SUDHL10, 5 h; listed as 079
reported-metric: IC50

Qu. Query: IC50; subject: Cc1c2c(nn1C)COCC1CCC1Cn1c(C(=O)O)c(CCCOc3cccc4ccccc34)c3ccc(Cl)c-2c31 (single isomer, unassigned; enantiomer 2)
Ans. 1.6e-06 M

* * *

- Test system: SUDHL5 cells
- assay-summary: Antiproliferation assay (CellTiter-Glo, 72 h), SUDHL5
- Type: cell-based
- run-conditions: Homo sapiens, SU-DHL-5, 72 h, IC50, median; SUDHL5, 72 h; read-out: Antiproli SUDHL5 [M] (median)
reported-metric: IC50 (M)
Report as a plain number; the unit M is understood.

compound: CCc1c2c(nn1C)COCC1(CCn3c(C(=O)O)c(CCCOc4cccc5cc(F)ccc45)c4ccc(Cl)c-2c43)CC1 [Example 110]
tested-target: SUDHL5 cells
IC50 [M]: 2.1e-07

compound: CCc1c2c(nn1C)CN(CC(F)(F)F)CCCCn1c(C(=O)O)c(CCCOc3cccc4cc(F)ccc34)c3ccc(Cl)c-2c31 (racemic)
tested-target: SUDHL5 cells
IC50 [M]: 2.5e-07

compound: CCc1c2c(nn1C)CN(CCC1CCOCC1)CCCCn1c(C(=O)O)c(CCCOc3cccc4cc(F)ccc34)c3ccc(Cl)c-2c31 (single isomer, unassigned; enantiomer 2) [Example 137]
tested-target: SUDHL5 cells
IC50 [M]: 5.1e-06

compound: CCc1c2c(nn1C)CN(C)CC(F)(F)CCn1c(C(=O)O)c(CCCOc3cccc4cc(F)ccc34)c3ccc(Cl)c-2c31 (racemic)
tested-target: SUDHL5 cells
IC50 [M]: 8.8e-07

compound: CCc1c2c(nn1C)COCC1(CCn3c(C(=O)O)c(CCCOc4cccc5ccccc45)c4ccc(Cl)c-2c43)CC1 (single isomer, unassigned; enantiomer 2) [Example 74]
tested-target: SUDHL5 cells
IC50 [M]: 7.6e-07

Qu. Observed IC50 on SUDHL5 cells for CCc1c2c(nn1C)COCC1CC1Cn1c(C(=O)O)c(CCCOc3cccc4cc(F)ccc34)c3ccc(Cl)c-2c31 (single isomer, unassigned; (+)) , please.
Ans. 1e-06

* * *

Reported IC50 is given for each of the following compounds.
- Test system: AMO-1 cells
- assay-summary: Antiproliferation assay (CellTiter-Glo, 72 h), AMO-1
- Assay type: cell-based
- run-conditions: Homo sapiens, AMO1, 72 h, IC50, median; AMO-1, 72 h; read-out: Antiproli AMO-1 [M] median

Below are worked cases with known answers.
compound: CCc1nn(C)c2c1-c1c(Cl)ccc3c(CCCOc4cccc5cc(F)ccc45)c(C(=O)O)n(c13)CCCCOC2 (single isomer, unassigned; enantiomer 1)
result: 1.4e-06 M
--
compound: CCc1c2c(nn1C)COCCC(F)(F)Cn1c(C(=O)O)c(CCCOc3cccc4cc(F)ccc34)c3ccc(Cl)c-2c31 (racemic)
result: 4.9e-07 M
--
compound: Cc1c2c(nn1C)COCCC(F)(F)Cn1c(C(=O)O)c(CCCOc3cccc4cc(F)ccc34)c3ccc(Cl)c-2c31 (racemic)
result: 1.2e-06 M
--
compound: Cc1c2c(nn1C)CN(C)CCCCn1c(C(=O)O)c(CCCOc3cccc4cc(F)ccc34)c3ccc(Cl)c-2c31 (racemic)
result: 4.2e-07 M
--
compound: CCc1nn(C)c2c1-c1c(Cl)ccc3c(CCCOc4cccc5cc(F)ccc45)c(C(=O)O)n(c13)CCCCN(C)C2 (single isomer, unassigned; enantiomer 1) [Example 40]
result: 3.6e-07 M

Now look at this one.
Qu. Quick one: IC50 for Cc1c2c(nn1C)COCC(F)(F)CCn1c(C(=O)O)c(CCCOc3cccc4cc(F)ccc34)c3ccc(Cl)c-2c31 (single isomer, unassigned) [Example 92] ?
Ans. 5.4e-07 M

* * *

- Tested on: SUDHL10 cells
- assay-summary: Induction of cytotoxicity (CellTiter-Glo, 5 h), SUDHL10
- run-conditions: read-out: Cytotox SUDHL10 [M] (median); IC50, median; SUDHL10, 5 h; listed as 083
reported-metric: IC50 (M)
Give the number; M is assumed, so skip it.

Qu. # lookup: IC50 of Cc1c2c(nn1C)COCC1CC1Cn1c(C(=O)O)c(CCCOc3cccc4ccccc34)c3ccc(Cl)c-2c31 (single isomer, unassigned)
Ans. 5.9e-07

* * *

- Test system: SUDHL5 cells
- assay-summary: Induction of caspase-3/7 activity (Caspase-Glo 3/7), SUDHL5
- Format: cell-based
- run-conditions: EC50, median; SUDHL5, 3 h treatment; listed as 080
reported-metric: EC50 (nM)
Give a bare numeral; the unit nM is implied.

Qu. Form field: EC50 recorded for Cc1c2c(nn1C)COCC1CCC1Cn1c(C(=O)O)c(CCCOc3cccc4ccccc34)c3ccc(Cl)c-2c31 (single isomer, unassigned) with SUDHL5 cells (enter value)
Ans. 490

* * *

# IC50 per entry
- Tested on: SUDHL5 cells
- assay-summary: Antiproliferation assay (CellTiter-Glo, 72 h), SUDHL5
- Assay type: cell-based
- run-conditions: IC50, median; SUDHL5, 72 h; read-out: Antiproli SUDHL5 [M] (median)
Write it as a number; the unit M goes unstated.

The following compounds have reported results that may help.
compound: CCc1c2c(nn1C)CN(CCN1CCOCC1)CCCCn1c(C(=O)O)c(CCCOc3cccc4cc(F)ccc34)c3ccc(Cl)c-2c31 (single isomer, unassigned; enantiomer 2) [Example 143]
quantitative-result: 9.4e-06
//
compound: Cc1c2c(nn1C)CN(CC(F)(F)F)CCCCn1c(C(=O)O)c(CCCOc3cccc4cc(F)ccc34)c3ccc(Cl)c-2c31 (single isomer, unassigned; enantiomer 1) [Example 59]
quantitative-result: 1.1e-06
//
compound: CCc1c2c(nn1C)COCC1CC1Cn1c(C(=O)O)c(CCCOc3cccc4cc(F)ccc34)c3ccc(Cl)c-2c31 (single isomer, unassigned; (+)) [Example 107]
quantitative-result: 7.2e-07
//
compound: Cc1c2c(nn1C)COCCCCn1c(C(=O)O)c(CCCOc3cccc4ccccc34)c3ccc(Cl)c-2c31 (single isomer, unassigned; enantiomer 1) [Example 26]
quantitative-result: 5.8e-07

Shift focus to the following entry.
Qu. Tell me the measured IC50 of CCc1c2c(nn1C)CN(C)CCCn1c(C(=O)O)c(CCCOc3cccc4cc(F)ccc34)c3ccc(Cl)c-2c31 [Example 113] , please.
Ans. 2.1e-06

* * *

- System: SUDHL5 cells
- assay-summary: Induction of cytotoxicity (CellTiter-Glo, 5 h), SUDHL5
- run-conditions: read-out: Cytotox SUDHL5 [M] (median); IC50, median; SUDHL5, 5 h; listed as 079
reported-metric: IC50 (M)
Return type: number; implicit unit M.

Qu. What value of IC50 has been recorded for this entry: Cc1c2c(nn1C)COCC1CCC1Cn1c(C(=O)O)c(CCCOc3cccc4ccccc34)c3ccc(Cl)c-2c31 (single isomer, unassigned; enantiomer 2)
Ans. 7.7e-07

* * *

- Tested on: AMO-1 cells
- assay-summary: Antiproliferation assay (CellTiter-Glo, 72 h), AMO-1
- Type: cell-based
- run-conditions: IC50, median; AMO-1, 72 h; listed as 076; read-out: Antiproli AMO-1 [M] median
reported-metric: IC50
# number then unit; no other words

Qu. Name the recorded IC50 for CCc1c2c(nn1C)CN(CC(F)F)CCCCn1c(C(=O)O)c(CCCOc3cccc4cc(F)ccc34)c3ccc(Cl)c-2c31 (single isomer, unassigned; enantiomer 2) [Example 76] .
Ans. 2.4e-07 M

* * *

- Tested on: AMO-1 cells
- assay-summary: Antiproliferation assay (CellTiter-Glo, 72 h), AMO-1
- Assay type: cell-based
- run-conditions: Homo sapiens, AMO1, 72 h, IC50, median; AMO-1, 72 h; read-out: Antiproli AMO-1 [M] median
reported-metric: IC50 (M)
Provide only the numeric value, understood in M.

Example entries and their recorded answers appear below.
compound: CCc1c2c(nn1C)CN(CCC1CCOCC1)CCCCn1c(C(=O)O)c(CCCOc3cccc4cc(F)ccc34)c3ccc(Cl)c-2c31 (single isomer, unassigned; enantiomer 2) [Example 137]
tested-target: AMO-1 cells
quantitative-result: 5e-06

compound: Cc1c2c(nn1C)COCCn1c(C(=O)O)c(CCCOc3cccc4ccccc34)c3ccc(Cl)c-2c31 (racemic) [Example 87]
tested-target: AMO-1 cells
quantitative-result: 3.8e-07

Attention now turns to another entry.
Qu. Look up IC50 with AMO-1 cells for this compound: Cc1c2c(nn1C)COCCCCn1c(C(=O)O)c(CCCOc3cccc4ccccc34)c3ccc(Cl)c-2c31 (racemic)
Ans. 1.3e-06

* * *

- System: HMC-1-8 cells
- assay-summary: Antiproliferation assay (CellTiter-Glo, 72 h), HMC-1-8
- Format: cell-based
- run-conditions: IC50, median; HMC-1-8, 72 h; listed as 097; read-out: Antiproli HMC-1-8 [M] median
reported-metric: IC50
Note to self: number, then unit, no commentary.

Qu. Given the entry CCc1c2c(nn1C)COCCC(F)(F)Cn1c(C(=O)O)c(CCCOc3cccc4cc(F)ccc34)c3ccc(Cl)c-2c31 (single isomer, unassigned) , report its measured IC50.
Ans. 2.2e-06 M
